System: SNB-19 CNS
Test Details: NCI tumour cell line growth inhibition, 48 h
Each entry below lists one item and its recorded TGI value.
Experimental Endpoint: TGI

>>> df
                                   molecule  assayed_target  measurement
0  CO/N=C1/C(n2[nH]c(=O)n(-c3ccccc3)c2=O)C2C=CC1n1c(=O)n(-c3ccccc3)c(=O)n12 (stereo not given)      SNB-19 CNS     > 100 µM
1  CCOC(=O)NC(=O)c1cn(CCCOC(=O)CCCCCCCCC(=O)OCCCn2cc(C(=O)NC(=O)OCC)c(=O)[nH]c2=O)c(=O)[nH]c1=O      SNB-19 CNS      57.4 µM
2  COc1ccc(/C=C2\CNC/C(=C\c3ccc(OC)cc3)C2=O)cc1      SNB-19 CNS     > 100 µM
3  CC1(C)SC2C(NC(=O)Cc3ccccc3)C(=O)N2C1C(=O)O (stereo not given)      SNB-19 CNS     > 100 µM
4  CCO[C@H]1C[C@@H](c2ccccc2)[C@]2(C)C[C@H](C(=O)OC)ON2O1      SNB-19 CNS     > 100 µM
5         Cc1ccc(NS(=O)(=O)c2cc(C)ccc2C)cc1      SNB-19 CNS     > 100 µM
6  N#CC1(c2nc3ccccc3o2)C(=O)C(=O)N(c2ccc(Cl)c(Cl)c2)C(=O)C1=O      SNB-19 CNS     > 100 µM
7  CCOC(=O)NNC1(SC)NC(=O)c2c(cc(Cl)oc2=O)O1 (stereo not given)      SNB-19 CNS      25.4 µM
8  Cn1c2ccc([N+](=O)[O-])cc2c(=O)c2c(O)cc(O)cc21      SNB-19 CNS     > 100 µM
9  Cc1[nH]n(-c2nc(O)c(C)c(=O)[nH]2)c(=O)c1CCO      SNB-19 CNS     > 100 µM

* * *

Each entry below lists one item and its recorded TGI value.
System: CAKI-1 renal
Test Details: NCI tumour cell line growth inhibition, 48 h

Compound	Assayed Target	TGI
COc1ccc(/C=N/n2c(Cc3ccc(Cl)cc3)n[nH]c2=O)cc1	CAKI-1 renal	> 100 µM
N#Cc1nc(Cc2ccccc2)oc1N	CAKI-1 renal	> 100 µM
O/N=C1\CC2(N3CCOCC3)CCC1(Cc1ccccc1)CC2	CAKI-1 renal	> 100 µM
NC(=O)C1=C(c2ccccc2)c2ccccc2C1=O	CAKI-1 renal	30.4 µM
O=c1[nH]nc2c3c(cccc13)NC(CN1Cc3ccccc3C1)=N2	CAKI-1 renal	> 100 µM
CC1=CC[C@H](C)C(C)(C)C1/C=C/C(C)=C/CC[C@@]1(CO)[C@H](CCCO)/C(=C(/C)C=O)CC[C@]1(C)O (stereo not given in full)	CAKI-1 renal	10.5 µM
CC1=NN(C(=O)CC(=O)Nc2cccc(Cl)c2)C(=O)C1N=Nc1ccc(S(=O)(=O)c2ccc(N=NC3C(=O)N(C(=O)CC(=O)Nc4cccc(Cl)c4)N=C3C)cc2)cc1 (stereo not given)	CAKI-1 renal	> 100 µM
c1cncc(C(Nc2cccc3cccnc23)Nc2cccc3cccnc23)c1	CAKI-1 renal	> 100 µM
NC(=NC1CCCCCC1)c1ccc(N2CCN(c3ccc(C(N)=NC4CCCCCC4)cc3)CC2)cc1	CAKI-1 renal	> 50 µM
Cc1cc2nc3c(C(O)CO)nn(-c4ccccc4)c3nc2cc1C (stereo not given)	CAKI-1 renal	33.2 µM
